Assay Explanation: in vivo
Cond: female, athymic Swiss nude, mouse, po

Smiles Text | MTD (mg/kg)
O=C(O)/C=C/c1ccc(-c2ccc(O)c(C34CC5CC(CC(C5)C3)C4)c2)cc1 | 15
